# System: Human alphaherpesvirus 1
# ASSAY_INFO: Minimum inhibitory concentration (MIC50) in Herpes simplex virus type-1 (HSV-1) using 377 strain.
# Format: functional
METRIC: MIC50 (µg/mL)
Numeric only. Scale: µg/mL

Worked set:
COMPOUND: Nc1ncnc2c1ncn2[C@@H]1O[C@H](CO)[C@@H](O)[C@@H]1O
TARGET_SYSTEM: Human alphaherpesvirus 1
MIC50, µg/mL: 9.8
--
COMPOUND: Cc1cn([C@@H]2C[C@H](CO)[C@@H](O)C2)c(=O)[nH]c1=O
TARGET_SYSTEM: Human alphaherpesvirus 1
MIC50, µg/mL: 0.8
--
COMPOUND: CCCCNc1cn(C2CC(O)C(CO)C2)c(=O)[nH]c1=O (centres undefined)
TARGET_SYSTEM: Human alphaherpesvirus 1
MIC50, µg/mL: 290

Continue with the next compound.
Asked: Any idea what its MIC50 is? The compound is "O=c1[nH]c(=O)n([C@H]2C[C@H](O)[C@@H](CO)O2)cc1I"
Given back: 0.3

###

# Test system: Human alphaherpesvirus 2
# ASSAY_INFO: Minimum inhibitory concentration (MIC50) in Herpes simplex virus type-2 (HSV-2) using MS strain.
# Type: functional
In this section we review reported MIC50 values for a set of molecules.
Numeric only. Scale: µg/mL

Worked set:
MOLECULE: CCCCNc1cn(C2CC(O)C(CO)C2)c(=O)[nH]c1=O (stereo not given)
TARGET_SYSTEM: Human alphaherpesvirus 2
VALUE_UNIT: µg/mL
MEASUREMENT: 1000

MOLECULE: Cc1cn([C@@H]2C[C@H](CO)[C@@H](O)C2)c(=O)[nH]c1=O
TARGET_SYSTEM: Human alphaherpesvirus 2
VALUE_UNIT: µg/mL
MEASUREMENT: 7

MOLECULE: Nc1ncnc2c1ncn2[C@@H]1O[C@H](CO)[C@@H](O)[C@@H]1O
TARGET_SYSTEM: Human alphaherpesvirus 2
VALUE_UNIT: µg/mL
MEASUREMENT: 20.1

MOLECULE: O=c1[nH]c(=O)n([C@H]2C[C@H](O)[C@@H](CO)O2)cc1I
TARGET_SYSTEM: Human alphaherpesvirus 2
VALUE_UNIT: µg/mL
MEASUREMENT: 1

Asked: Any idea what its MIC50 is? The molecule is CNc1cn(C2CC(O)C(CO)C2)c(=O)[nH]c1=O (stereo not given)
Given back: 229

###

In this section we review reported Virus rating values for a set of compounds.
# System: Human alphaherpesvirus 2
# ASSAY_INFO: Antiviral activity against herpes simplex virus(2) strain MS expressed as virus rating
# Assay type: functional
// return a plain number; no unit text

COMPOUND: O=c1[nH]c(=O)n([C@H]2C[C@H](O)[C@@H](CO)O2)cc1F
Virus rating: 0
--
COMPOUND: Cc1cn([C@@H]2C[C@H](CO)[C@@H](O)C2)c(=O)[nH]c1=O
Virus rating: 3.2
--
COMPOUND: O=c1[nH]c(=O)n(C2CC(O)C(CO)C2)cc1Br (stereo unspecified)
Virus rating: 1.5
--
COMPOUND: Nc1ncnc2c1ncn2[C@@H]1O[C@H](CO)[C@@H](O)[C@@H]1O
Virus rating: 2.3
--
COMPOUND: O=c1[nH]c(=O)n(C2CC(CO)C(O)C2O)cc1CO (stereo unspecified)
Virus rating: 0

Asked: Any idea what its Virus rating is? The compound is "O=c1[nH]c(=O)n([C@H]2C[C@H](O)[C@@H](CO)O2)cc1I"
Given back: 5

Source listed as ChEMBL document CHEMBL1122431.
